Recorded measurements of pKi, one per entry
- system-tested: Aspartate--tRNA ligase (Escherichia coli (strain K12), UniProt P21889)
- Sequence (P21889 whole entry): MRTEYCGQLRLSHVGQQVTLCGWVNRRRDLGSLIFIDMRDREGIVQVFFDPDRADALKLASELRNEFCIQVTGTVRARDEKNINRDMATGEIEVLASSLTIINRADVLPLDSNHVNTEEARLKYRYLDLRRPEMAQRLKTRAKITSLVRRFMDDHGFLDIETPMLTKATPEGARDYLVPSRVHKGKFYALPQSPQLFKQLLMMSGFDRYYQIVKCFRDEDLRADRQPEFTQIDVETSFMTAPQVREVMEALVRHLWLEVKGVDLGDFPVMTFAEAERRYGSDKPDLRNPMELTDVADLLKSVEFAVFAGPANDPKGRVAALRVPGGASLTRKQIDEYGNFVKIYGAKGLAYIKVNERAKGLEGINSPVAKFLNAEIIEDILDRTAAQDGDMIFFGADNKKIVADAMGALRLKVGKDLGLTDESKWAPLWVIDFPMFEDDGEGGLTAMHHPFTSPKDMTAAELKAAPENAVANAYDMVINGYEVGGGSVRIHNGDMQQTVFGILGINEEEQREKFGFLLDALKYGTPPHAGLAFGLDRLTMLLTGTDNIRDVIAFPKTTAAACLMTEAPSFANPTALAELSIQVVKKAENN
- assay-text: Inhibition of Escherichia coli BL21(DE3) Aspartyl-tRNA synthetase assessed as reduction in tRNA aminoacylation preincubated for 10 mins with Escherichia coli tRNA and 14C-labeled aspartic acid followed by ATP addition by liquid scintillation counting method
- measurement-conditions: read-out: Ki(app)
Please note pKi is a logarithmic value: minus log10 of concentration in mol/L. Answer with that number alone.

| smiles-entry | pKi |
| --- | --- |
| Nc1ncnc2c1ncn2[C@@H]1O[C@H](COS(=O)(=O)NC(=O)[C@@H](N)CC(=O)O)[C@@H](O)[C@H]1O | 10.28 |

Lab note: next compound to report on.
Q: Name the recorded pKi for `Nc1nccc2c1ncn2[C@@H]1O[C@H](COS(=O)(=O)NC(=O)[C@@H](N)CC(=O)O)[C@@H](O)[C@H]1O` .
A: 7.60
